ENDPOINT_NAME: intrinsic clearance, rat liver microsomes (mL/min/kg)

Here are 5 compounds together with their reported answers.
| COMPOUND | READING |
| --- | --- |
| COc1cc(Nc2ncc(F)c(Nc3ccc4c(n3)NC(=O)C(C)(C)O4)n2)cc(OC)c1OC | 122 |
| O=C(NCc1ccccc1)c1ccc(NS(=O)(=O)c2ccc(C3CCCCC3)cc2)cc1 | 402 |
| CC1CN(C(=O)c2cccnc2N2CCOCC2)CC(c2ccccc2)O1 (centres undefined) | 554 |
| c1ccc(-c2ncc(CNc3ncccn3)s2)nc1 | 2070 |
| COc1ccccc1-c1nn(-c2ccccc2)cc1CO | 374 |

[a] CCOc1cc(N(C)CC2CCN(C)CC2)ncn1
[b] O=C(O)c1ccccc1COc1cccc2cccnc12
[c] CN(CCC1CCCCC1)C(=O)c1ccon1
[d] Cc1ccncc1NC(=O)Cc1ccc(F)cc1
Prompt: Hey, can you sort those compounds up there by intrinsic clearance, rat liver microsomes, smallest first? Provide your answer as the labels ordered per the instruction.
Response: b, d, a, c

[1] Cc1ncsc1C(=O)N1C[C@@H]2CCCN(C(=O)c3scnc3C)[C@@H]2C1
[2] CCOc1ccc(CC(=O)N2CCC3(CC2)Nc2cc(C)ccc2-n2cccc23)cc1OCC
[3] Nc1ccc2[nH]c(CCc3ccccc3)nc2c1
Prompt: Hey, can you sort those compounds up there by intrinsic clearance, rat liver microsomes, smallest first? Provide your answer as the labels ordered per the instruction.
Response: 1, 3, 2

[a] Cc1cc(NC(=O)c2ccc(NC3CC3)nc2)[nH]n1
[b] O=C(c1cc(-c2ccc(F)cc2)on1)N1CC[C@H](Oc2ccccc2F)[C@@H](O)CC1
[c] Cc1ccc2nc(CN(C)Cc3cccc(Cl)c3Cl)cc(=O)n2c1
Prompt: Ranking field: intrinsic clearance, rat liver microsomes; order: falling. Provide your answer as the labels ordered per the instruction.
Response: c, b, a
(c: 4770 mL/min/kg, b: 600 mL/min/kg, a: 15.5 mL/min/kg)
